# EXPERIMENTAL_DETAILS: method code SF-AS, from DOI: 10.1016/s0021-9673(01)88398-9
# ASSAY_SETUP: pH 5.0
Listed below: logD values for each entry.
Form field (numeric): enter value without unit.

Quick check: logD of Cc1cnc2cccc(C)n2c1=O ?
1.27

Can you look up the measured logD of Cc1cc(=O)n2c(n1)CCCC2C (stereo unspecified) for me?
0.67

* * *

MEASURED_PARAMETER: logP
Could you respond with only the numeric value?

As a guide, the following entries are already answered.
{"COMPOUND": "O=c1ccnc2n1CCCC2", "logP": 0.13}
{"COMPOUND": "O=c1ccnc2ccccn12", "logP": 0.3}
{"COMPOUND": "CCc1cnc2cccc(C)n2c1=O", "logP": 1.58}

Which logP is listed for CC1CCCc2nccc(=O)n21 (centres undefined) ?
0.37

* * *

# EXPERIMENTAL_DETAILS: method code SF-AS, from DOI: 10.1016/s0021-9673(01)88398-9
# ASSAY_SETUP: pH 5.0
Each entry below carries its recorded logD.
Reply briefly: the number, and no unit.

{"COMPOUND": "CCCc1c(C)nc2cccc(C)n2c1=O", "logD": 2.22}

Which value of logD has been reported for CCc1c(C)nc2cccc(C)n2c1=O in the records?
1.86

Fill in the blank: the reported logD of Cc1cccc2nccc(=O)n12 is ____.
0.74

Consider the compound CCc1c(C)nc2n(c1=O)C(C)CCC2 (centres undefined) and give its measured logD.
1.43
